test: in vitro; conditions: human, liver microsomes
Description: Microsomal stability in human liver microsomes assessed as intrinsic clearance
MEASURED_ATTRIBUTE: microsomal CLint (µL/min/mg)
Field format: number, assumed µL/min/mg, no unit text.

I would be grateful if you could share the reported microsomal CLint for N#CC[C@H](C1CCCC1)n1cc(-c2ncnc3[nH]ccc23)cn1 . 40

I would be grateful if you could share the reported microsomal CLint for NC(=O)c1cnc(Nc2ccccn2)cc1Nc1ccccc1Cl . 227

I would be grateful if you could share the reported microsomal CLint for COc1ccccc1Nc1cc(Nc2ccccn2)ncc1C(N)=O . 210

I would be grateful if you could share the reported microsomal CLint for COc1ccccc1Nc1cc(Nc2cccc(C)n2)ncc1C(N)=O . 179

I would be grateful if you could share the reported microsomal CLint for COc1ccccc1Nc1cc(Nc2cccnn2)ncc1C(N)=O . 127

I would be grateful if you could share the reported microsomal CLint for Cc1cccc(Nc2cc(Nc3ccccc3Cl)c(C(N)=O)cn2)n1 . 166
